Target: CB2 (Homo sapiens, UniProt P34972)
Sequence (P34972 whole entry): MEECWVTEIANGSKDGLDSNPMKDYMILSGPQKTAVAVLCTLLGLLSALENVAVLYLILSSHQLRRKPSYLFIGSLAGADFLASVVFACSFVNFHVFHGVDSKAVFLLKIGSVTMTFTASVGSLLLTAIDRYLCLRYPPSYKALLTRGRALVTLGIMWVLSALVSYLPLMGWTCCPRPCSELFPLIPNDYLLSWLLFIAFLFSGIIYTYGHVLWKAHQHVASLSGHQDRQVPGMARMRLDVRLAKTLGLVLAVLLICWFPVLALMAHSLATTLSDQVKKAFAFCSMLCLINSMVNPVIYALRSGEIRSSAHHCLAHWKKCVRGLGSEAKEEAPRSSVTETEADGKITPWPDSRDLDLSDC
Sequence (P32121 whole entry partner): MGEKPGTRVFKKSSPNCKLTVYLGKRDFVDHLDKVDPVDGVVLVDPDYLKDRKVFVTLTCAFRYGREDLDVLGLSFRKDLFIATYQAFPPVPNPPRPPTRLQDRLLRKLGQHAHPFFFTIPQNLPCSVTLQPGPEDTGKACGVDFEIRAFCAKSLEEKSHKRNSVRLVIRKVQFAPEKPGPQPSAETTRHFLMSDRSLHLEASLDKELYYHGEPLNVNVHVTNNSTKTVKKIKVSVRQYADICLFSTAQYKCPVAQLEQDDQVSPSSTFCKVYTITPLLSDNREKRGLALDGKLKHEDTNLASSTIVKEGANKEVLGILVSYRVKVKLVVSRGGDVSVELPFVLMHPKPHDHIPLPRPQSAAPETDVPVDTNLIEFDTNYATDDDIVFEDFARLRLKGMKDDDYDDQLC
Experiment: cell-based
Format: cell-based
pEC50: −log10 of the molar value.
READOUT LABEL: pEC50

- Cc1c(Br)cn(Cc2ccc(F)cc2)c(=O)c1NC(=O)C1CCCCC1: 5.37

###

Target: CB2 (Homo sapiens, UniProt P34972)
Assay: cell-based
Assay type: cell-based
Settings: read-out: EC 50 (nM) (95% CI), CB2
READOUT LABEL: EC50 (nM)

- CCCCCn1cc(C(=O)c2cccc3ccccc23)c2ccccc21: 4.36
